method: Cmax in HIV-negative human at 400 mg, po administered as single dose followed by 4 days wash out period followed by efavirenz dosing at 600 mg, po bid for 14 days coadministered with compound at 400 mg, po on day 12
Format: ADME, organism-based
Set-up: dose 400 mg, route oral
conditionNotes: in vivo, in the assay text read “po qd for 14 days” for “po bid for 14 days”
assayMetric: Cmax (µM)
Write down the numeric answer in µM and omit the unit.

Input line: Given the entry Cc1nnc(C(=O)NC(C)(C)c2nc(C(=O)NCc3ccc(F)cc3)c(O)c(=O)n2C)o1 , report its measured Cmax.
Output line: 6.45

----------
method: Cmax in HIV-negative human at 400 mg, po administered as single dose
Type: ADME, organism-based
Parameters: dose 400 mg, route oral
conditionNotes: in vivo
assayMetric: Cmax (µM)
Write the answer as a number in µM, unit excluded.

Input line: Any idea what Cmax was measured for Cc1nnc(C(=O)NC(C)(C)c2nc(C(=O)NCc3ccc(F)cc3)c(O)c(=O)n2C)o1 [RALTEGRAVIR] ?
Output line: 9.57

----------
method: AUC (0 to infinity) in HIV-negative human at 400 mg, po administered as single dose
Assay type: ADME, organism-based
Design: dose 400 mg, time infinity, route oral
conditionNotes: plasma
assayMetric: AUC(0-inf) (µM·h)
Quick reminder: number only, in µM·h, skip the unit.

Input line: Which measured AUC(0-inf) value corresponds to Cc1nnc(C(=O)NC(C)(C)c2nc(C(=O)NCc3ccc(F)cc3)c(O)c(=O)n2C)o1 ?
Output line: 22.9

----------
method: Terminal half life in HIV-negative human at 400 mg, po administered as single dose followed by 4 days wash out period followed by ritonavir dosing at 100 mg, po bid for 16 days coadministered with compound at 400 mg, po on day 14
Assay type: ADME, organism-based
conditionNotes: in vivo, read-out: beta t1/2 (converted)
assayMetric: half-life (h)
Expressed in h, but write only the number.

Input line: Could you share which half-life value was measured for Cc1nnc(C(=O)NC(C)(C)c2nc(C(=O)NCc3ccc(F)cc3)c(O)c(=O)n2C)o1 ?
Output line: 10

----------
method: AUC (0 to infinity) in HIV-negative human at 400 mg, po administered as single dose followed by 4 days wash out period followed by efavirenz dosing at 600 mg, po bid for 14 days coadministered with compound at 400 mg, po on day 12
Type: ADME, organism-based
Parameters: dose 400 mg, route oral, time infinity
conditionNotes: plasma, in the assay text read “po qd for 14 days” for “po bid for 14 days”
assayMetric: AUC(0-inf) (µM·h)
Field format: number, assumed µM·h, no unit text.

Input line: For the molecule shown here, Cc1nnc(C(=O)NC(C)(C)c2nc(C(=O)NCc3ccc(F)cc3)c(O)c(=O)n2C)o1 , give the reported AUC(0-inf).
Output line: 18.1

----------
method: Cmax in HIV-negative human at 400 mg, po administered as single dose followed by 4 days wash out period followed by […] coadministered with compound at 400 mg, po on day 14
Assay type: ADME, organism-based
Parameters: dose 400 mg, route oral
conditionNotes: in vivo
assayMetric: Cmax
Could you write the number and then its unit?

Input line: # Cmax lookup, item Cc1nnc(C(=O)NC(C)(C)c2nc(C(=O)NCc3ccc(F)cc3)c(O)c(=O)n2C)o1
Output line: 7.23 µM

----------
method: Primary phase half life in HIV-negative human at 400 mg, po administered as single dose
Type: ADME, organism-based
conditionNotes: in vivo, read-out: alphat1/2 (converted)
assayMetric: half-life (min)
Numeric answer only, unit min assumed.

Input line: GET /values?readout=half-life&item= Cc1nnc(C(=O)NC(C)(C)c2nc(C(=O)NCc3ccc(F)cc3)c(O)c(=O)n2C)o1
Output line: 58.8

// provenance: ChEMBL document CHEMBL1275565
